Test system: PDAC081T cells
protocol_details: Cell viability assay (PrestoBlue)
Assay type: cell-based
run_parameters: Homo sapiens; PDAC081T (classical subtype), 72 h
Excerpt: Primary pancreatic cancer cells PDAC001T, PDAC012T, PDAC021T, PDAC081T, PDAC082T, PDAC087T, PDAC088T, PDAC089T, and PDAC115T were obtained from the PaCaOmics clinical trial registered at www.clinicaltrials.gov (accessed on 2 October 2021) with registration number NCT01692873. We included PDAC samples from both echoendoscopic ultrasound-guided fine-needle (EUS-FNA) biopsies for patients with unresectable tumors and from surgical specimens for patients undergoing surgery. […]
pIC50 reference
Keep it numeric: pIC50 is minus log10 of the concentration in mol/L.

Completed entries (count: 3):
INSERT INTO results (compound, target_system, measured_value) VALUES
  ('FC(F)(F)c1ccc2c(c1)N(CCCN1CCN(CCCN3CCOCC3)CC1)c1ccccc1S2 [ZZW-148]', 'PDAC081T cells', 5.95),
  ('FC(F)(F)c1ccc2c(c1)N(CCCN1CCN(CCN3CCOCC3)CC1)c1ccccc1S2 [ZZW-132]', 'PDAC081T cells', 5.72),
  ('CCN(CC)CCCN1CCN(CCCN2c3ccccc3Sc3ccc(C(F)(F)F)cc32)CC1 [ZZW-143]', 'PDAC081T cells', 6.01);

Can you look up the measured pIC50 of CCN(CC)CCN1CCN(CCCN2c3ccccc3Sc3ccc(C(F)(F)F)cc32)CC1 [ZZW-129] for me? 6.07

Can you look up the measured pIC50 of CN(C)CCCN1CCN(CCCN2c3ccccc3Sc3ccc(C(F)(F)F)cc32)CC1 [ZZW-142] for me? 5.64

----------
target_system: NUPR1 (Homo sapiens)
Construct: made in house
protocol_details: Isothermal titration calorimetry (ITC) binding to NUPR1
run_parameters: 25 °C, pH 7.0
experimental_readout: ΔG (kcal mol^–1)
Give the value, in units of kcal mol^–1, as a plain number.

Completed entries (count: 4):
INSERT INTO measurements (line_notation, target_system, experimental_readout, unit_tag, measured_value) VALUES
  ('FC(F)(F)c1ccc2c(c1)N(CCCN1CCN(CCCN3CCCC3)CC1)c1ccccc1S2', 'NUPR1 (Homo sapiens)', 'ΔG', 'kcal mol^–1', '−6.7'),
  ('CCN(CC)CCCN1CCN(CCCN2c3ccccc3Sc3ccc(C(F)(F)F)cc32)CC1', 'NUPR1 (Homo sapiens)', 'ΔG', 'kcal mol^–1', '−6.4'),
  ('CCN(CC)CCN1CCN(CCCN2c3ccccc3Sc3ccc(C(F)(F)F)cc32)CC1', 'NUPR1 (Homo sapiens)', 'ΔG', 'kcal mol^–1', '−7.5'),
  ('FC(F)(F)c1ccc2c(c1)N(CCCN1CCN(CCN3CCCCC3)CC1)c1ccccc1S2', 'NUPR1 (Homo sapiens)', 'ΔG', 'kcal mol^–1', '−7.7');

Can you look up the measured ΔG of FC(F)(F)c1ccc2c(c1)N(CCCN1CCN(CCN3CCCC3)CC1)c1ccccc1S2 for me? −7.9

----------
pIC50 reference
Tested on: PDAC115T cells
protocol_details: Cell viability assay (PrestoBlue)
Type: cell-based
run_parameters: Homo sapiens; PDAC115T (basal subtype), 72 h
Keep it numeric: pIC50 is minus log10 of the concentration in mol/L.

Completed entries (count: 3):
INSERT INTO results (line_notation, experimental_readout, measured_value) VALUES
  ('FC(F)(F)c1ccc2c(c1)N(CCCN1CCN(CCN3CCOCC3)CC1)c1ccccc1S2', 'pIC50', 4.79),
  ('FC(F)(F)c1ccc2c(c1)N(CCCN1CCN(CCCN3CCCCC3)CC1)c1ccccc1S2', 'pIC50', 5.61),
  ('FC(F)(F)c1ccc2c(c1)N(CCCN1CCN(CCCN3CCOCC3)CC1)c1ccccc1S2', 'pIC50', 5.36);

Look up pIC50 with PDAC115T cells for this molecule: FC(F)(F)c1ccc2c(c1)N(CCCN1CCN(CCN3CCCCC3)CC1)c1ccccc1S2 5.24

Look up pIC50 with PDAC115T cells for this molecule: FC(F)(F)c1ccc2c(c1)N(CCCN1CCN(CCCN3CCCC3)CC1)c1ccccc1S2 5.49

----------
target_system: NUPR1 (Homo sapiens, UniProt O60356)
Construct: made in house
Sequence (O60356 1-82): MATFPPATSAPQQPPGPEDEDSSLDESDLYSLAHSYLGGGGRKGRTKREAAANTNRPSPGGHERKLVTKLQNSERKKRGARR
protocol_details: Isothermal titration calorimetry (ITC) binding to NUPR1
run_parameters: 25 °C, pH 7.0
ΔH reference
Give the value, in units of kcal mol^–1, as a plain number.

Completed entries (count: 5):
INSERT INTO assay_data (line_notation, measured_value) VALUES
  ('FC(F)(F)c1ccc2c(c1)N(CCCN1CCN(CCCN3CCCC3)CC1)c1ccccc1S2', 0.5),
  ('FC(F)(F)c1ccc2c(c1)N(CCCN1CCN(CCN3CCOCC3)CC1)c1ccccc1S2', 0.3),
  ('FC(F)(F)c1ccc2c(c1)N(CCCN1CCN(CCN3CCCC3)CC1)c1ccccc1S2', 0.3),
  ('FC(F)(F)c1ccc2c(c1)N(CCCN1CCN(CCN3CCCCC3)CC1)c1ccccc1S2', 0.5),
  ('FC(F)(F)c1ccc2c(c1)N(CCCN1CCN(CCCN3CCCCC3)CC1)c1ccccc1S2', 0.7);

Look up ΔH with NUPR1 (Homo sapiens, UniProt O60356) for this molecule: FC(F)(F)c1ccc2c(c1)N(CCCN1CCN(CCCN3CCOCC3)CC1)c1ccccc1S2 0.7

Look up ΔH with NUPR1 (Homo sapiens, UniProt O60356) for this molecule: CCN(CC)CCN1CCN(CCCN2c3ccccc3Sc3ccc(C(F)(F)F)cc32)CC1 −0.7

Look up ΔH with NUPR1 (Homo sapiens, UniProt O60356) for this molecule: CN(C)CCCN1CCN(CCCN2c3ccccc3Sc3ccc(C(F)(F)F)cc32)CC1 0.3

Look up ΔH with NUPR1 (Homo sapiens, UniProt O60356) for this molecule: CCN(CC)CCCN1CCN(CCCN2c3ccccc3Sc3ccc(C(F)(F)F)cc32)CC1 0.8

----------
Tested on: PDAC089T cells
protocol_details: Cell viability assay (PrestoBlue)
Assay type: cell-based
run_parameters: Homo sapiens; PDAC089T (derived from a liver metastasis), 72 h
pIC50 reference
Keep it numeric: pIC50 is minus log10 of the concentration in mol/L.

Completed entries (count: 3):
INSERT INTO assay_data (line_notation, measured_value) VALUES
  ('FC(F)(F)c1ccc2c(c1)N(CCCN1CCN(CCN3CCCCC3)CC1)c1ccccc1S2', 4.98),
  ('FC(F)(F)c1ccc2c(c1)N(CCCN1CCN(CCN3CCOCC3)CC1)c1ccccc1S2', 4.54),
  ('FC(F)(F)c1ccc2c(c1)N(CCCN1CCN(CCN3CCCC3)CC1)c1ccccc1S2', 5.22);

Look up pIC50 with PDAC089T cells for this molecule: CCN(CC)CCCN1CCN(CCCN2c3ccccc3Sc3ccc(C(F)(F)F)cc32)CC1 5.21

Look up pIC50 with PDAC089T cells for this molecule: FC(F)(F)c1ccc2c(c1)N(CCCN1CCN(CCCN3CCOCC3)CC1)c1ccccc1S2 4.83

Look up pIC50 with PDAC089T cells for this molecule: CCN(CC)CCN1CCN(CCCN2c3ccccc3Sc3ccc(C(F)(F)F)cc32)CC1 5.10

----------
Tested on: PDAC087T cells
protocol_details: Cell viability assay (PrestoBlue)
Type: cell-based
run_parameters: Homo sapiens; PDAC087T (basal subtype), 72 h
pIC50: −log10 of the molar value.
Outcome: Fulfilled for pIC50 of at least 5; Not fulfilled for anything lower.

// below: answered molecules
INSERT INTO results (line_notation, group) VALUES
  ('FC(F)(F)c1ccc2c(c1)N(CCCN1CCN(CCN3CCCCC3)CC1)c1ccccc1S2', 'Fulfilled'),
  ('FC(F)(F)c1ccc2c(c1)N(CCCN1CCN(CCCN3CCCCC3)CC1)c1ccccc1S2', 'Fulfilled'),
  ('CCN(CC)CCN1CCN(CCCN2c3ccccc3Sc3ccc(C(F)(F)F)cc32)CC1', 'Fulfilled'),
  ('CN(C)CCCN1CCN(CCCN2c3ccccc3Sc3ccc(C(F)(F)F)cc32)CC1', 'Not fulfilled');

Is it the case that FC(F)(F)c1ccc2c(c1)N(CCCN1CCN(CCN3CCCC3)CC1)c1ccccc1S2 has pIC50 reaching or exceeding 5? Fulfilled

----------
Test system: PDAC087T cells
protocol_details: Cell viability assay (PrestoBlue)
Assay type: cell-based
run_parameters: Homo sapiens; PDAC087T (basal subtype), 72 h
pIC50 reference
Keep it numeric: pIC50 is minus log10 of the concentration in mol/L.

Completed entries (count: 3):
INSERT INTO results (line_notation, measured_value) VALUES
  ('FC(F)(F)c1ccc2c(c1)N(CCCN1CCN(CCCN3CCOCC3)CC1)c1ccccc1S2', 5.18),
  ('FC(F)(F)c1ccc2c(c1)N(CCCN1CCN(CCN3CCOCC3)CC1)c1ccccc1S2', 4.78),
  ('FC(F)(F)c1ccc2c(c1)N(CCCN1CCN(CCCN3CCCC3)CC1)c1ccccc1S2', 5.45);

Can you look up the measured pIC50 of CCN(CC)CCCN1CCN(CCCN2c3ccccc3Sc3ccc(C(F)(F)F)cc32)CC1 for me? 5.65
